# target_entity: AMP-activated protein kinase, AMPK (Homo sapiens) (UniProt P54646+O43741+P54619+Q9UGJ0+Q9Y478+Q13131+Q9UGI9)
# test_description: AMP-dependent Kinase enzyme assay. An in vitro enzyme assay that detects ADP turnover that is directly proportional to AMPK activity. This uses naive AMPK that is activated during the assay with MK-8722
# Type: functional
# Design: scale not given: direction of the effect not stated beside the values
# conditions: 30 µM
Consider the following compounds and their measured Percent Effect readings.
readout_label: Percent Effect (%)

compound=COc1ccc(Cl)cc1CN(C)C(=O)CN1C(=O)OC[C@@H]1C(C)C readout_label="Percent Effect" scale_unit=% value_observed=1.71
compound=CN1CC2(CCN(C(=O)c3ccc(=O)n(C)c3)CC2)CC1=O readout_label="Percent Effect" scale_unit=% value_observed=-1.98
compound=Cc1cccc(C)c1Nc1noc2c1CN(C(=O)c1ccn(C)n1)CC2 readout_label="Percent Effect" scale_unit=% value_observed=15.9
compound=CCOC(=O)N(C)C1CCN(Cc2cnc3ccccn23)CC1 readout_label="Percent Effect" scale_unit=% value_observed=0.795
compound="Fc1ccc(C2(CNCC(F)F)CCOC2)cc1 (stereo unspecified)" readout_label="Percent Effect" scale_unit=% value_observed=3.05
compound="Cc1cc(C(=O)NCCN2CCCCC2C)nn1C(C)(C)C (stereo unspecified)" readout_label="Percent Effect" scale_unit=% value_observed=1.65

====

Consider the following molecules and their measured Percent Effect readings.
# target_entity: Sialic acid-binding Ig-like lectin 9 (Homo sapiens) (UniProt Q9Y336)
# Sequence (Q9Y336 whole entry): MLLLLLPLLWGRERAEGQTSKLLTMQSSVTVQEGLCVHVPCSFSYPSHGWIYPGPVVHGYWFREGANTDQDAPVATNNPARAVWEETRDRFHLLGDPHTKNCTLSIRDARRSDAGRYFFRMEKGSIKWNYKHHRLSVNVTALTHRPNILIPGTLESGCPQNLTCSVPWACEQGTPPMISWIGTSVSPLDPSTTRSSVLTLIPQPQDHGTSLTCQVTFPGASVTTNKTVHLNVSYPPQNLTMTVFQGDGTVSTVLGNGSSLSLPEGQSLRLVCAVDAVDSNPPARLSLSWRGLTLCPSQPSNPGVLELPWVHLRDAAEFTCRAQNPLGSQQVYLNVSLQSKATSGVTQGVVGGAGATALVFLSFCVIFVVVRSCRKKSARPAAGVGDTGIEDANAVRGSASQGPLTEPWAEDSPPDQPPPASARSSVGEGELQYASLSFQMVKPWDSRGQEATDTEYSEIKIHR
# test_description: Hs-Siglec9 ALPHAscreen SOP 20170721
# Parameters: scale not given: direction of the effect not stated beside the values
# conditions: 10 µM
readout_label: Percent Effect (%)

molecule=O=c1[nH][nH]cc1-c1ccnc(NCCN2CCCC2)n1 target_entity="Sialic acid-binding Ig-like lectin 9 (Homo sapiens) (UniProt Q9Y336)" readout_label="Percent Effect" value_observed=-2.82
molecule="Cc1cccc(CN2CCC3(CCN(c4ccccn4)C3)C2=O)c1 (stereo not drawn)" target_entity="Sialic acid-binding Ig-like lectin 9 (Homo sapiens) (UniProt Q9Y336)" readout_label="Percent Effect" value_observed=0.691
molecule="c1ccc(-n2ccc(CN3CCCC3Cn3cccn3)n2)cc1 (stereo not drawn)" target_entity="Sialic acid-binding Ig-like lectin 9 (Homo sapiens) (UniProt Q9Y336)" readout_label="Percent Effect" value_observed=9.5
molecule=Cc1cccc(CN2C(=O)CCC23CCN(Cc2cccn2C)CC3)n1 target_entity="Sialic acid-binding Ig-like lectin 9 (Homo sapiens) (UniProt Q9Y336)" readout_label="Percent Effect" value_observed=-0.409
molecule=CN(Cc1ccccc1)C(=O)c1nc(S(C)(=O)=O)n2ccccc12 target_entity="Sialic acid-binding Ig-like lectin 9 (Homo sapiens) (UniProt Q9Y336)" readout_label="Percent Effect" value_observed=-5.33
molecule=CCOC(=O)N1CCN(C(=O)c2sc(-c3ccc(F)cc3)nc2C)CC1 target_entity="Sialic acid-binding Ig-like lectin 9 (Homo sapiens) (UniProt Q9Y336)" readout_label="Percent Effect" value_observed=8.85
molecule=c1ccc(-c2nc(CN3CCc4c(ncn4C4CC4)C3)cs2)cc1 target_entity="Sialic acid-binding Ig-like lectin 9 (Homo sapiens) (UniProt Q9Y336)" readout_label="Percent Effect" value_observed=-12.1
molecule="COCC(C)NC(=O)c1cc(Br)c2c(c1)OCCO2 (stereo not drawn)" target_entity="Sialic acid-binding Ig-like lectin 9 (Homo sapiens) (UniProt Q9Y336)" readout_label="Percent Effect" value_observed=4.72
molecule=CCc1cc(C(F)(F)F)c2c(C)nn(CC(=O)O)c2n1 target_entity="Sialic acid-binding Ig-like lectin 9 (Homo sapiens) (UniProt Q9Y336)" readout_label="Percent Effect" value_observed=-6.26
molecule=Cn1nc2c(cc1=O)CN(Cc1nnc(-c3ccco3)o1)CC2 target_entity="Sialic acid-binding Ig-like lectin 9 (Homo sapiens) (UniProt Q9Y336)" readout_label="Percent Effect" value_observed=-11.1
molecule=CCc1sc(-c2nnc(CNCCn3cc(C)cn3)o2)cc1C target_entity="Sialic acid-binding Ig-like lectin 9 (Homo sapiens) (UniProt Q9Y336)" readout_label="Percent Effect" value_observed=8.91
molecule="CCN(CC)C(=O)C(c1ccccc1)N1CCn2c(C)nnc2C1 (stereo not drawn)" target_entity="Sialic acid-binding Ig-like lectin 9 (Homo sapiens) (UniProt Q9Y336)" readout_label="Percent Effect" value_observed=9.65
molecule="Cc1cccc(-c2noc(CN3CCCC3Cn3cccn3)n2)c1 (stereo not drawn)" target_entity="Sialic acid-binding Ig-like lectin 9 (Homo sapiens) (UniProt Q9Y336)" readout_label="Percent Effect" value_observed=4.15
molecule="c1ccc(Cn2ccnc2CN2CCCC2c2noc(C3CC3)n2)cc1 (stereo not drawn)" target_entity="Sialic acid-binding Ig-like lectin 9 (Homo sapiens) (UniProt Q9Y336)" readout_label="Percent Effect" value_observed=-7.23
molecule=CCc1nc(C)c(C(=O)NCCN2CCC(C)CC2)s1 target_entity="Sialic acid-binding Ig-like lectin 9 (Homo sapiens) (UniProt Q9Y336)" readout_label="Percent Effect" value_observed=7.15
molecule="CCc1ccc(CN2CCC3(CC2)NC(=O)CC3c2ccncc2)o1 (stereo not drawn)" target_entity="Sialic acid-binding Ig-like lectin 9 (Homo sapiens) (UniProt Q9Y336)" readout_label="Percent Effect" value_observed=-0.747
molecule=COc1ccc(F)cc1C(=O)N(C)Cc1cc(C)on1 target_entity="Sialic acid-binding Ig-like lectin 9 (Homo sapiens) (UniProt Q9Y336)" readout_label="Percent Effect" value_observed=-5.44
molecule="Cc1nn(C)c(N(C)C)c1CNC(C)c1cccc(OC(C)C)c1 (stereo not drawn)" target_entity="Sialic acid-binding Ig-like lectin 9 (Homo sapiens) (UniProt Q9Y336)" readout_label="Percent Effect" value_observed=13.8
molecule=Cc1cnc(N2CCC3(CCN(CC4CC4)C3=O)CC2)nc1 target_entity="Sialic acid-binding Ig-like lectin 9 (Homo sapiens) (UniProt Q9Y336)" readout_label="Percent Effect" value_observed=-3.91
molecule="Cc1c(CN2CCCC(c3[nH]ncc3S(C)(=O)=O)C2)cnn1C (stereo not drawn)" target_entity="Sialic acid-binding Ig-like lectin 9 (Homo sapiens) (UniProt Q9Y336)" readout_label="Percent Effect" value_observed=-0.226
molecule=CCCc1n[nH]cc1C(=O)N1CCC(c2nccn2CCOC)CC1 target_entity="Sialic acid-binding Ig-like lectin 9 (Homo sapiens) (UniProt Q9Y336)" readout_label="Percent Effect" value_observed=21.9
molecule="Cc1cc(C(=O)NCC(C)N2CCc3ccccc32)no1 (stereo not drawn)" target_entity="Sialic acid-binding Ig-like lectin 9 (Homo sapiens) (UniProt Q9Y336)" readout_label="Percent Effect" value_observed=10.1
molecule="O=C(NCCc1coc(-c2ccc(F)cc2)n1)NC1CCC(O)CC1 (stereo not drawn)" target_entity="Sialic acid-binding Ig-like lectin 9 (Homo sapiens) (UniProt Q9Y336)" readout_label="Percent Effect" value_observed=5.86
molecule="CC(Cn1cccn1)NC(=O)Cc1cccs1 (stereo not drawn)" target_entity="Sialic acid-binding Ig-like lectin 9 (Homo sapiens) (UniProt Q9Y336)" readout_label="Percent Effect" value_observed=1.17
molecule="CC(C)OCCN(C)C(C)c1cccc(S(N)(=O)=O)c1 (stereo not drawn)" target_entity="Sialic acid-binding Ig-like lectin 9 (Homo sapiens) (UniProt Q9Y336)" readout_label="Percent Effect" value_observed=-5.22
molecule="Cc1nc(CN(C)C2CCN(Cc3ccc4ccccc4n3)C2)no1 (stereo not drawn)" target_entity="Sialic acid-binding Ig-like lectin 9 (Homo sapiens) (UniProt Q9Y336)" readout_label="Percent Effect" value_observed=-6.12
molecule=CN(C)C(=O)N1C[C@H]2CCC[C@@]2(COc2ccccn2)C1 target_entity="Sialic acid-binding Ig-like lectin 9 (Homo sapiens) (UniProt Q9Y336)" readout_label="Percent Effect" value_observed=-3.98
molecule="CCC1c2ccsc2CCN1C(=O)NCc1cc[nH]n1 (stereo not drawn)" target_entity="Sialic acid-binding Ig-like lectin 9 (Homo sapiens) (UniProt Q9Y336)" readout_label="Percent Effect" value_observed=-4.75
molecule=O=C(CCSc1ccc(F)cc1)NS(=O)(=O)c1ccc2c(c1)OCCO2 target_entity="Sialic acid-binding Ig-like lectin 9 (Homo sapiens) (UniProt Q9Y336)" readout_label="Percent Effect" value_observed=-3.31
molecule="CCC(O)CN1CCN(C(=O)c2sccc2OC)CC1 (stereo not drawn)" target_entity="Sialic acid-binding Ig-like lectin 9 (Homo sapiens) (UniProt Q9Y336)" readout_label="Percent Effect" value_observed=10.4
molecule="Cc1nc(CNCC2CN(C)CCO2)cs1 (stereo not drawn)" target_entity="Sialic acid-binding Ig-like lectin 9 (Homo sapiens) (UniProt Q9Y336)" readout_label="Percent Effect" value_observed=4.98
molecule=COC(=O)N1C[C@H]2CC[C@@H]1CN(Cc1cscn1)C2 target_entity="Sialic acid-binding Ig-like lectin 9 (Homo sapiens) (UniProt Q9Y336)" readout_label="Percent Effect" value_observed=5.89
molecule="O=C1CC2(CCN(S(=O)(=O)c3cccs3)C2)CN1c1ccccc1 (stereo not drawn)" target_entity="Sialic acid-binding Ig-like lectin 9 (Homo sapiens) (UniProt Q9Y336)" readout_label="Percent Effect" value_observed=0.409
molecule="CC(O)(CN1CCC2(CC1)OCCO2)c1cccc(C(F)(F)F)c1 (stereo not drawn)" target_entity="Sialic acid-binding Ig-like lectin 9 (Homo sapiens) (UniProt Q9Y336)" readout_label="Percent Effect" value_observed=8.88
molecule="COc1ccc(CNC(=O)N2CCC(Cc3cnn(C)c3)C2)cc1C (stereo not drawn)" target_entity="Sialic acid-binding Ig-like lectin 9 (Homo sapiens) (UniProt Q9Y336)" readout_label="Percent Effect" value_observed=-4.56
molecule=O=C(O)c1cc(S(=O)(=O)N2CCOc3ccccc32)ccc1F target_entity="Sialic acid-binding Ig-like lectin 9 (Homo sapiens) (UniProt Q9Y336)" readout_label="Percent Effect" value_observed=-10.2
molecule="Cc1occc1CNC(=O)N(CCCO)C1CCc2ccccc21 (stereo not drawn)" target_entity="Sialic acid-binding Ig-like lectin 9 (Homo sapiens) (UniProt Q9Y336)" readout_label="Percent Effect" value_observed=5.35
molecule=COc1cccc(OC)c1C(=O)N1CCN(c2ccccc2F)CC1 target_entity="Sialic acid-binding Ig-like lectin 9 (Homo sapiens) (UniProt Q9Y336)" readout_label="Percent Effect" value_observed=0.141
molecule="Cc1cc(C2CCCN(C(=O)c3c(C)nn4cccnc34)C2)n[nH]1 (stereo not drawn)" target_entity="Sialic acid-binding Ig-like lectin 9 (Homo sapiens) (UniProt Q9Y336)" readout_label="Percent Effect" value_observed=6.1
molecule=CCNC(=O)[C@@H]1C[C@H](NC(=O)Cc2ccsc2)CN1Cc1ccc(C)o1 target_entity="Sialic acid-binding Ig-like lectin 9 (Homo sapiens) (UniProt Q9Y336)" readout_label="Percent Effect" value_observed=10.2
molecule="CCOCCN1CCCC(c2cc(C(N)=O)[nH]n2)C1 (stereo not drawn)" target_entity="Sialic acid-binding Ig-like lectin 9 (Homo sapiens) (UniProt Q9Y336)" readout_label="Percent Effect" value_observed=5.24
molecule=CCN1CCN(C(=O)NCCOc2ccc3c(c2)OCO3)CC1 target_entity="Sialic acid-binding Ig-like lectin 9 (Homo sapiens) (UniProt Q9Y336)" readout_label="Percent Effect" value_observed=7.69
molecule=Cn1ncc(NCc2cc(F)cc(F)c2)c(Cl)c1=O target_entity="Sialic acid-binding Ig-like lectin 9 (Homo sapiens) (UniProt Q9Y336)" readout_label="Percent Effect" value_observed=-5.81
molecule="CCc1nc(C2CCCN2C(=O)c2ccc3c(c2)nc(C)n3C)no1 (stereo not drawn)" target_entity="Sialic acid-binding Ig-like lectin 9 (Homo sapiens) (UniProt Q9Y336)" readout_label="Percent Effect" value_observed=4.72
molecule=O=c1cc(Cn2cncn2)nc2n1CCCN(CC1CC1)C2 target_entity="Sialic acid-binding Ig-like lectin 9 (Homo sapiens) (UniProt Q9Y336)" readout_label="Percent Effect" value_observed=-1.33
molecule=Cc1nc(N2CCCC2)nc2c1CN(C(=O)N1CCOCC1)CC2 target_entity="Sialic acid-binding Ig-like lectin 9 (Homo sapiens) (UniProt Q9Y336)" readout_label="Percent Effect" value_observed=1.78
molecule=COCCN1C[C@@H]2CN(C(=O)[C@H]3CCCO3)C[C@@H]2C1=O target_entity="Sialic acid-binding Ig-like lectin 9 (Homo sapiens) (UniProt Q9Y336)" readout_label="Percent Effect" value_observed=-1.76
molecule=CO[C@@H]1CCN(C(=O)c2ccccn2)[C@H]1Cc1ccccc1 target_entity="Sialic acid-binding Ig-like lectin 9 (Homo sapiens) (UniProt Q9Y336)" readout_label="Percent Effect" value_observed=2.27
